From: paper PMC5814754

# subject.of.test: full-length kinase/Nluc fusion proteins (Homo sapiens, UniProt P12931)
# Sequence (P12931 whole entry, the tested form may be a part): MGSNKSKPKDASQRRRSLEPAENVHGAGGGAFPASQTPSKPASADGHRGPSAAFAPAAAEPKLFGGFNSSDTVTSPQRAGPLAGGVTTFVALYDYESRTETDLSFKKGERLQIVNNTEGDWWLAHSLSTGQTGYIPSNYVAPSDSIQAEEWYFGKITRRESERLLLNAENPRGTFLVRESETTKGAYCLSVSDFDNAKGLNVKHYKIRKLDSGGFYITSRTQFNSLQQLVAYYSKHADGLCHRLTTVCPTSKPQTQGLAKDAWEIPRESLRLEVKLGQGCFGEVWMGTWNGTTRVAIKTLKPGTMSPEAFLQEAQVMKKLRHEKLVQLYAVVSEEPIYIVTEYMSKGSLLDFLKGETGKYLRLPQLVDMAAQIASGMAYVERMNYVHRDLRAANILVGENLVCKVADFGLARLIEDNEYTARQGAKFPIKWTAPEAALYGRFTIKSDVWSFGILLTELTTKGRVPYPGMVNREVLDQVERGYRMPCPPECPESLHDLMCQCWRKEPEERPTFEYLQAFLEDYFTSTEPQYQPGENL
# protocol.notes: Apparent affinity (EC50) of energy transfer probes by titration onto live HEK293 cells expressing kinase/Nluc fusions (Table S1)
# measurement.context: SRC (NP_005408), Nluc orientation C; read-out: Probe EC50
observed.property: pEC50
One number for each entry, as −log10 of the molar value.

Ask | Observed pEC50 on full-length kinase/Nluc fusion proteins (Homo sapiens, UniProt P12931) for Cc1nc(Nc2ncc(C(=O)Nc3c(C)cccc3Cl)s2)cc(N2CCN(CCOCCNC(=O)CCc3ccc4n3[B-](F)(F)[N+]3=C(c5ccc[nH]5)C=CC3=C4)CC2)n1 [Energy Transfer Probe 6] , please.
Reply | 6.52

====

# subject.of.test: full-length kinase/Nluc fusion proteins (Homo sapiens)
# protocol.notes: Apparent affinity (EC50) of energy transfer probes by titration onto live HEK293 cells expressing kinase/Nluc fusions (Table S1)
# Assay type: binding
# measurement.context: RPS6KA6 (NP_055311), Nluc orientation N; read-out: Probe EC50
observed.property: EC50 (nM)
Numbers only, in nM.

Ask | Form field - read-out: EC50; system: full-length kinase/Nluc fusion proteins (Homo sapiens); submitted item: CNC(=O)c1ccccc1Nc1nc(Nc2ccc(N3CCN(C(=O)CCOCCOCCOCCOCCNC(=O)CCc4ccc5n4[B-](F)(F)[N+]4=C(c6ccc[nH]6)C=CC4=C5)CC3)cc2)ncc1Cl [Energy Transfer Probe 5]
Reply | 400

====

# subject.of.test: full-length kinase/Nluc fusion proteins (Homo sapiens)
# protocol.notes: Apparent affinity (EC50) of energy transfer probes by titration onto live HEK293 cells expressing kinase/Nluc fusions (Table S1)
# measurement.context: MARK2, Nluc N; read-out: Probe EC50
observed.property: EC50

Ask | Form field: reported EC50 of CNC(=O)c1ccccc1Nc1nc(Nc2ccc(N3CCN(C(=O)CCOCCOCCOCCOCCNC(=O)CCc4ccc5n4[B-](F)(F)[N+]4=C(c6ccc[nH]6)C=CC4=C5)CC3)cc2)ncc1Cl [Energy Transfer Probe 5]
Reply | > 1000 nM

====

# subject.of.test: full-length kinase/Nluc fusion proteins (Homo sapiens, UniProt Q5S007)
# Sequence (Q5S007 whole entry, the tested form may be a part): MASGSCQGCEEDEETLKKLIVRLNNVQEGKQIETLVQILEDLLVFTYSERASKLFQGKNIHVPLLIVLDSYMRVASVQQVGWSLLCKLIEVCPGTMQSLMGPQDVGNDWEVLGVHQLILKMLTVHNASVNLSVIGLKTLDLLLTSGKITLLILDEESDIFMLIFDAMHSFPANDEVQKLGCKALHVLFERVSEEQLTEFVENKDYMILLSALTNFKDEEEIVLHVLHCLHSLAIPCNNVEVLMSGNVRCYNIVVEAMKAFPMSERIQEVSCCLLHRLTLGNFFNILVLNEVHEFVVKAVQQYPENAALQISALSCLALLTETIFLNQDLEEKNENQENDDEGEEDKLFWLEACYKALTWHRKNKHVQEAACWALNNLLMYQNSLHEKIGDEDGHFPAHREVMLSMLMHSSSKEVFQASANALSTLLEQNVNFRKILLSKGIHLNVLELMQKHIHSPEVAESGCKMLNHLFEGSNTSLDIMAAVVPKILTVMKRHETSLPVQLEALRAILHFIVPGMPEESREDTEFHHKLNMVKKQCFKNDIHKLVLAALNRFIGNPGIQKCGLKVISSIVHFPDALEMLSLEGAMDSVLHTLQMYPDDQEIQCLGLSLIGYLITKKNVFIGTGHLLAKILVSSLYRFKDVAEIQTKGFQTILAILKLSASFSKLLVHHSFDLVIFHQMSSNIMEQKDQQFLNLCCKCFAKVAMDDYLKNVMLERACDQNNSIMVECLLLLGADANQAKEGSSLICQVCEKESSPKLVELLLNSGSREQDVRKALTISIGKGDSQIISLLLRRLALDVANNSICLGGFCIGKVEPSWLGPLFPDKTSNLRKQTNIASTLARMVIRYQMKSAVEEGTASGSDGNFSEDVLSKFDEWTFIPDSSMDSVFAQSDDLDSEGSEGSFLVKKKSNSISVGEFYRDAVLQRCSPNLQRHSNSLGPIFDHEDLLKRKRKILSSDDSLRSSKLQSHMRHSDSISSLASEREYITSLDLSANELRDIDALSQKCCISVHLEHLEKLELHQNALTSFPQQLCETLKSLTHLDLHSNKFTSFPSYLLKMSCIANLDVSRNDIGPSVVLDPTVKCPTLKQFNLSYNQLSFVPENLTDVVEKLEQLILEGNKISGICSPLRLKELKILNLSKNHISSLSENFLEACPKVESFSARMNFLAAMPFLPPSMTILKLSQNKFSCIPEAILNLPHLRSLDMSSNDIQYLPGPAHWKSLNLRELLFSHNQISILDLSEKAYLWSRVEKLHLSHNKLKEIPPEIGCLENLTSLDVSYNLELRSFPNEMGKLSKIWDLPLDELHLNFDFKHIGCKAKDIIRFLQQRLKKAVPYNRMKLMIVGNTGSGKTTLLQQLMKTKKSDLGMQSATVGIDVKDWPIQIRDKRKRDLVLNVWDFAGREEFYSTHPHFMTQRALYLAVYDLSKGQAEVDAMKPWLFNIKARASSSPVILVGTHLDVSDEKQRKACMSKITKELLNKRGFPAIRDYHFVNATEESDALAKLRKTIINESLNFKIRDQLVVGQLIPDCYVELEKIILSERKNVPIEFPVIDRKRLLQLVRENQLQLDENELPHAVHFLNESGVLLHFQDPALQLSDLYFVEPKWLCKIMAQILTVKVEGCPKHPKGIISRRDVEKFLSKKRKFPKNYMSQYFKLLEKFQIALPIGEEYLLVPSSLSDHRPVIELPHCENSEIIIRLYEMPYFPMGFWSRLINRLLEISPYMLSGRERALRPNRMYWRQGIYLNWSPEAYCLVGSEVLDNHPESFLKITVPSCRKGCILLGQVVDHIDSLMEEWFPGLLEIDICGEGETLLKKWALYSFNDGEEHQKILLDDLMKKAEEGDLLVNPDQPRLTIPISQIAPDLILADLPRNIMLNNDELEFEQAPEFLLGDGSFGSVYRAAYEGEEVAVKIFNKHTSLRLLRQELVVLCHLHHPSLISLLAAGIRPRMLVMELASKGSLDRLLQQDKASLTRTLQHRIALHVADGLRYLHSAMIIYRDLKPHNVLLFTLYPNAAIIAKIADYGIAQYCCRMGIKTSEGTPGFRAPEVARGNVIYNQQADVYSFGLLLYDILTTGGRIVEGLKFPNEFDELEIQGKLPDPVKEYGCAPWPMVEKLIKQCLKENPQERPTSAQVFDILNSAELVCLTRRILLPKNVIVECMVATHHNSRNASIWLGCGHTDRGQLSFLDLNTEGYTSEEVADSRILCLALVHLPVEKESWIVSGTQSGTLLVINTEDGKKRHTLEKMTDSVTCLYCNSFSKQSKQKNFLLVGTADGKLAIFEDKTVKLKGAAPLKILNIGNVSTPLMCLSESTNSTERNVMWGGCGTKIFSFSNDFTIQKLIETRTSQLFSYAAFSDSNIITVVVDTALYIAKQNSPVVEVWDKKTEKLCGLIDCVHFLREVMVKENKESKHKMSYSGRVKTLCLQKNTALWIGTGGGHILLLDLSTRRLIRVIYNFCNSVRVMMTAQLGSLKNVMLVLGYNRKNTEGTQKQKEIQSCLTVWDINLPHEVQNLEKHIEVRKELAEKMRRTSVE
# protocol.notes: Apparent affinity (EC50) of energy transfer probes by titration onto live HEK293 cells expressing kinase/Nluc fusions (Table S1)
# measurement.context: LRRK2, Nluc C; read-out: Probe EC50
pEC50: −log10 of the molar value.
observed.property: pEC50

Ask | Request: pEC50, test system full-length kinase/Nluc fusion proteins (Homo sapiens, UniProt Q5S007), entry CNC(=O)c1ccccc1Nc1nc(Nc2ccc(N3CCN(C(=O)CCOCCOCCOCCOCCNC(=O)CCc4ccc5n4[B-](F)(F)[N+]4=C(c6ccc[nH]6)C=CC4=C5)CC3)cc2)ncc1Cl [Energy Transfer Probe 5]
Reply | < 6.00

====

# subject.of.test: LCK (Homo sapiens)
# protocol.notes: NanoBRET target engagement, LCK-NanoLuc, HEK293 cells (live, ATP depleted, permeabilized)
# Type: binding
# measurement.context: LCK Replicate 3; permeabilized HEK293; probe 5; read-out: ATP Kd
observed.property: Kd
Show the value, then the unit it is measured in.

Ask | What does the record list as Kd for Nc1ncnc2c1ncn2[C@@H]1O[C@H](COP(=O)(O)OP(=O)(O)OP(=O)(O)O)[C@@H](O)[C@H]1O [ATP] ?
Reply | 15.4 µM

====

# subject.of.test: full-length kinase/Nluc fusion proteins (Homo sapiens)
# protocol.notes: Apparent affinity (EC50) of energy transfer probes by titration onto live HEK293 cells expressing kinase/Nluc fusions (Table S1)
# measurement.context: ABL2, Nluc N; read-out: Probe EC50
observed.property: pEC50
One number for each entry, as −log10 of the molar value.

Ask | What reported pEC50 corresponds to Cc1nc(Nc2ncc(C(=O)Nc3c(C)cccc3Cl)s2)cc(N2CCN(CCOCCNC(=O)CCc3ccc4n3[B-](F)(F)[N+]3=C(c5ccc[nH]5)C=CC3=C4)CC2)n1 [Energy Transfer Probe 6] on full-length kinase/Nluc fusion proteins (Homo sapiens)?
Reply | 8.00

====

# subject.of.test: full-length kinase/Nluc fusion proteins (Homo sapiens, UniProt Q13546)
# Sequence (Q13546 whole entry, the tested form may be a part): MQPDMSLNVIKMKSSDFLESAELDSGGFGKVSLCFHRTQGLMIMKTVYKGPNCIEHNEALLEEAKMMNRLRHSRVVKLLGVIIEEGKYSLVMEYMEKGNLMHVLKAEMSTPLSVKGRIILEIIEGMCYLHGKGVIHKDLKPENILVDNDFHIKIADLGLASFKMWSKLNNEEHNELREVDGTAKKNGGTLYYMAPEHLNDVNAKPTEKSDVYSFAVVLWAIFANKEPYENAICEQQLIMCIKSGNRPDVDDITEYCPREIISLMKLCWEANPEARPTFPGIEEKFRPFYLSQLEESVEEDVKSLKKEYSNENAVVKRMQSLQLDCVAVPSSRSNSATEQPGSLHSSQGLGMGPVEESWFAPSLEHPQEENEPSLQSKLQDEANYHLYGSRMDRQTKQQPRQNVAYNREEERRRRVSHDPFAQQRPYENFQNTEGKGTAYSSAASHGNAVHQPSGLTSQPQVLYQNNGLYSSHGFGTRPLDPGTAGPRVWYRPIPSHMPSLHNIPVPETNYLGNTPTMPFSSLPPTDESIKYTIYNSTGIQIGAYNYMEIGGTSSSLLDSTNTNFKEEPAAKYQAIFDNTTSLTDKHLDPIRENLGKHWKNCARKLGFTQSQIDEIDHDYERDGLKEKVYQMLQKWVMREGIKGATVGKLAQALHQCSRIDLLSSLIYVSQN
# protocol.notes: Apparent affinity (EC50) of energy transfer probes by titration onto live HEK293 cells expressing kinase/Nluc fusions (Table S1)
# Format: binding
# measurement.context: RIPK1, Nluc N (probe 1)
pEC50: −log10 of the molar value.
observed.property: pEC50

Ask | Could you share which pEC50 value was measured for N#CCc1ccc(Nc2nc(NCCCCNC(=O)CCc3ccc4n3[B-](F)(F)[N+]3=C(c5ccc[nH]5)C=CC3=C4)cc(Nc3cc(C4CC4)[nH]n3)n2)cc1 [Energy Transfer Probe 1] ?
Reply | < 6.00

====

# subject.of.test: full-length kinase/Nluc fusion proteins (Homo sapiens, UniProt P51451)
# Sequence (P51451 whole entry, the tested form may be a part): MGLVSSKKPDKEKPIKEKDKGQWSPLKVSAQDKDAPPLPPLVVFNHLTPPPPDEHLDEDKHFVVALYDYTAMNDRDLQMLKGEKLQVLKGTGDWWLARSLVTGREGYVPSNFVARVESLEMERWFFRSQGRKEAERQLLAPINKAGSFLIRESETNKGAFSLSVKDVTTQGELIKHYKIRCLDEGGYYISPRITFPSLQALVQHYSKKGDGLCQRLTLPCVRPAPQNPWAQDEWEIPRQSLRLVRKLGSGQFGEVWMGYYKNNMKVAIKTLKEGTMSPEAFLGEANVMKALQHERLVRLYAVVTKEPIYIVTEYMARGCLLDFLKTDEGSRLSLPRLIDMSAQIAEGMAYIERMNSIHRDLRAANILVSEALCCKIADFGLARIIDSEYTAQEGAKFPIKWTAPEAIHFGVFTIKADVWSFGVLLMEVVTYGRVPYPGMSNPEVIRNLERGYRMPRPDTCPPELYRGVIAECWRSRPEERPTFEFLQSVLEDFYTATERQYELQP
# protocol.notes: Apparent affinity (EC50) of energy transfer probes by titration onto live HEK293 cells expressing kinase/Nluc fusions (Table S1)
# measurement.context: BLK, Nluc N; read-out: Probe EC50
observed.property: EC50 (nM)
One number for each entry, in nM.

Ask | # input compound: Cc1nc(Nc2ncc(C(=O)Nc3c(C)cccc3Cl)s2)cc(N2CCN(CCOCCNC(=O)CCc3ccc4n3[B-](F)(F)[N+]3=C(c5ccc[nH]5)C=CC3=C4)CC2)n1 [Energy Transfer Probe 6] ; wanted: its EC50
Reply | 300

====

# subject.of.test: full-length kinase/Nluc fusion proteins (Homo sapiens, UniProt Q9NYL2)
# Sequence (Q9NYL2 whole entry, the tested form may be a part): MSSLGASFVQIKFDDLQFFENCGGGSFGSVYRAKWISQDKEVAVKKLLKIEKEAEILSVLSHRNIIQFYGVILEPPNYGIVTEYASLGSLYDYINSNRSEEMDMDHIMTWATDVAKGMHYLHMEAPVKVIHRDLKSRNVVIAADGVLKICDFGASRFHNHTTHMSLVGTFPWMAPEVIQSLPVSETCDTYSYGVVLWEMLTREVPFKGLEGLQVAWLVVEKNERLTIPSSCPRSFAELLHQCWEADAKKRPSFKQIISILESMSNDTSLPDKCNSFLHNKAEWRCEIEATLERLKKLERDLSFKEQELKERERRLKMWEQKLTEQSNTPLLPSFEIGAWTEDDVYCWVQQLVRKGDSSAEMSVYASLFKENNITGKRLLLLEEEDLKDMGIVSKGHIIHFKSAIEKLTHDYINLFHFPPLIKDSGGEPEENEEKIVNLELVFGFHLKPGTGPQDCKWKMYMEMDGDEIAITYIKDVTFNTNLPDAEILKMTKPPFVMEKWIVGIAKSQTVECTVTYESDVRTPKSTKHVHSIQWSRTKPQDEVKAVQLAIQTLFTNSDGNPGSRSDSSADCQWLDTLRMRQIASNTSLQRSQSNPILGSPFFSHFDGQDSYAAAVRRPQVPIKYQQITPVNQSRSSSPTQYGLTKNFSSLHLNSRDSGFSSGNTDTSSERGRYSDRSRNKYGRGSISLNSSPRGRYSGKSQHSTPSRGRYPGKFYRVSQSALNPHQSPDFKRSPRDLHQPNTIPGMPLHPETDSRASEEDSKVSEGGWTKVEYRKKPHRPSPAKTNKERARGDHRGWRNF
# protocol.notes: Apparent affinity (EC50) of energy transfer probes by titration onto live HEK293 cells expressing kinase/Nluc fusions (Table S1)
# measurement.context: MLTK, Nluc N; read-out: Probe EC50
observed.property: EC50 (nM)
Answers are plain numbers, in nM.

Ask | Form field: reported EC50 of Cc1ccc(C(=O)Nc2ccc(CN3CCN(CCCNC(=O)CCc4ccc5n4[B-](F)(F)[N+]4=C(c6ccc[nH]6)C=CC4=C5)CC3)c(C(F)(F)F)c2)cc1C#Cc1cnc2cccnn12 [Energy Transfer Probe 4]
Reply | 70

====

# subject.of.test: full-length kinase/Nluc fusion proteins (Homo sapiens)
# protocol.notes: Apparent affinity (EC50) of energy transfer probes by titration onto live HEK293 cells expressing kinase/Nluc fusions (Table S1)
# measurement.context: MAPK6, Nluc N; read-out: Probe EC50
observed.property: EC50
// unit must come after the numeric part

Ask | So what's the measured EC50 for this one? CNC(=O)c1ccccc1Nc1nc(Nc2ccc(N3CCN(C(=O)CCOCCOCCOCCOCCNC(=O)CCc4ccc5n4[B-](F)(F)[N+]4=C(c6ccc[nH]6)C=CC4=C5)CC3)cc2)ncc1Cl [Energy Transfer Probe 5]
Reply | 400 nM

====

# subject.of.test: full-length kinase/Nluc fusion proteins (Homo sapiens, UniProt O75460)
# protocol.notes: Apparent affinity (EC50) of energy transfer probes by titration onto live HEK293 cells expressing kinase/Nluc fusions (Table S1)
# measurement.context: ERN1, Nluc C; read-out: Probe EC50
observed.property: EC50

Ask | Recorded EC50 for CNC(=O)c1ccccc1Nc1nc(Nc2ccc(N3CCN(C(=O)CCOCCOCCOCCOCCNC(=O)CCc4ccc5n4[B-](F)(F)[N+]4=C(c6ccc[nH]6)C=CC4=C5)CC3)cc2)ncc1Cl [Energy Transfer Probe 5] , please?
Reply | > 1 µM

====

# subject.of.test: full-length kinase/Nluc fusion proteins (Homo sapiens, UniProt Q8WU08)
# protocol.notes: Apparent affinity (EC50) of energy transfer probes by titration onto live HEK293 cells expressing kinase/Nluc fusions (Table S1)
# measurement.context: STK32A (NP_001106195), Nluc orientation N; read-out: Probe EC50
observed.property: EC50

Ask | Which measured EC50 belongs to CNC(=O)c1ccccc1Nc1nc(Nc2ccc(N3CCN(C(=O)CCOCCOCCOCCOCCNC(=O)CCc4ccc5n4[B-](F)(F)[N+]4=C(c6ccc[nH]6)C=CC4=C5)CC3)cc2)ncc1Cl [Energy Transfer Probe 5] , tested on full-length kinase/Nluc fusion proteins (Homo sapiens, UniProt Q8WU08)?
Reply | > 1000 nM

====

# subject.of.test: full-length kinase/Nluc fusion proteins (Homo sapiens)
# Sequence (Q13043 1-487): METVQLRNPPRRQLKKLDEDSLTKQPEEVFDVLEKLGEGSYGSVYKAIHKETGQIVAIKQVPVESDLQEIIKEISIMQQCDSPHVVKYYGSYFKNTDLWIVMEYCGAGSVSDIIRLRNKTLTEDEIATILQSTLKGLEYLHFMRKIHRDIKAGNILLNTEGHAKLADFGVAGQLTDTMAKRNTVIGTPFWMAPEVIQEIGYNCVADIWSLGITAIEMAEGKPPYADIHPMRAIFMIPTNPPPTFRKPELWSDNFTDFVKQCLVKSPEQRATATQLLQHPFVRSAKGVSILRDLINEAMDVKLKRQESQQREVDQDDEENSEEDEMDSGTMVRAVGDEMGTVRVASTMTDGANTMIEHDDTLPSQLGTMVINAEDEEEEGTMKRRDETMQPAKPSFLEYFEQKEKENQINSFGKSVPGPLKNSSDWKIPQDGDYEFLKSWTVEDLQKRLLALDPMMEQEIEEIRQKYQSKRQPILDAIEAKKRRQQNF
# protocol.notes: Apparent affinity (EC50) of energy transfer probes by titration onto live HEK293 cells expressing kinase/Nluc fusions (Table S1)
# measurement.context: STK4 (NP_006273), Nluc orientation N; read-out: Probe EC50
pEC50: −log10 of the molar value.
observed.property: pEC50

Ask | Please report the recorded pEC50 for CNC(=O)c1ccccc1Nc1nc(Nc2ccc(N3CCN(C(=O)CCOCCOCCOCCOCCNC(=O)CCc4ccc5n4[B-](F)(F)[N+]4=C(c6ccc[nH]6)C=CC4=C5)CC3)cc2)ncc1Cl [Energy Transfer Probe 5] .
Reply | < 6.00
